Each entry below carries its reported pIC50.
biological target: Aryl hydrocarbon receptor (Cavia porcellus); experiment: AHR ligand binders displacing [3H]TCDD, late-stage follow-up, counter-screen for AHR activator project, cell lysate, guinea pig liver cytosol, radiometric (AID 602226); conditions: [3H]TCDD HAP binding, measured here: IC50 range upper bound
pIC50: −log10 of the molar value.
PROPERTY: pIC50

INSERT INTO results (smiles_data, value) VALUES
  ('Cc1ccc(-c2cc(-c3cccs3)[nH]n2)c(O)c1', 7.00),
  ('COc1ccc(NC(=O)c2cccc3c(Br)cccc23)cc1', 6.00),
  ('Cc1nc(N)nc(Nc2ccc(Cl)cc2)c1Br', 6.00);

----------
test system: Aryl hydrocarbon receptor (Cavia porcellus); test: AHR ligand binders displacing [3H]TCDD, late-stage follow-up, counter-screen for AHR activator project, cell lysate, guinea pig liver cytosol, radiometric (AID 602226); conditions: [3H]TCDD HAP binding, at 10 µM, stronger effect = higher value
Kindly return 1 (yes) if reported inhibition is no lower than 30%; return 0 (no) if it is lower.

INSERT INTO measurements (smiles_data, label_class) VALUES
  ('COc1ccccc1NC(=O)c1ccc(C(=O)Nc2ccccc2OC)nc1', '1 (yes)'),
  ('COc1ccc(NC(=O)c2cccc3c(Br)cccc23)cc1', '1 (yes)'),
  ('CCOC(=O)Cc1cc(-c2ccc(O)cc2)nc2ccc3ccccc3c12', '1 (yes)'),
  ('Cc1ccc(-c2cc(-c3cccs3)[nH]n2)c(O)c1', '1 (yes)'),
  ('Cc1csc(SCC(=O)Nc2ccc(Cl)cn2)n1', '0 (no)'),
  ('Cc1nc(N)nc(Nc2ccc(Cl)cc2)c1Br', '1 (yes)');

----------
Overview of recorded pIC50 for various compounds
molecular target: Aryl hydrocarbon receptor (Cavia porcellus); test: AHR ligand binders displacing [3H]TCDD, late-stage follow-up, counter-screen for AHR activator project, cell lysate, guinea pig liver cytosol, radiometric (AID 602226); conditions: [3H]TCDD HAP binding, measured here: IC50 range lower bound
pIC50: −log10 of the molar value.
PROPERTY: pIC50

INSERT INTO results (smiles_data, property, value) VALUES
  ('COc1ccc(NC(=O)c2cccc3c(Br)cccc23)cc1', 'pIC50', 7.00),
  ('Cc1nc(N)nc(Nc2ccc(Cl)cc2)c1Br', 'pIC50', 7.00),
  ('CCOC(=O)Cc1cc(-c2ccc(O)cc2)nc2ccc3ccccc3c12', 'pIC50', 6.00);
